testDetails: Brain penetration data
Format: in vivo
details: brain/blood, read-out: Brain/Blood ratio
Kp for assorted compounds
outcomeMeasure: Kp

[[record]]
linenotation = "N#CCCCS(=O)(=O)c1cccc(Oc2ccc(F)c(-c3ncnc4c(C(F)(F)F)cccc34)c2)c1"
outcomemeasure = "Kp"
recordedresult = 0.55

[[record]]
linenotation = "CS(=O)(=O)c1cccc(Oc2ccc(F)c(-c3ncnc4c(Cl)cccc34)c2)c1"
outcomemeasure = "Kp"
recordedresult = 1.2

[[record]]
linenotation = "CCS(=O)(=O)c1cccc(Oc2ccc(F)c(-c3ncnc4c(Cl)cccc34)c2)c1"
outcomemeasure = "Kp"
recordedresult = 1.2

[[record]]
linenotation = "CCS(=O)(=O)c1cccc(Oc2ccc(Cl)c(-c3nc(C)nc4c(C(F)(F)F)cccc34)c2)c1"
outcomemeasure = "Kp"
recordedresult = 1.57

[[record]]
linenotation = "NC(=O)CCCS(=O)(=O)c1cccc(Oc2ccc(Cl)c(-c3ncnc4c(C(F)(F)F)cccc34)c2)c1"
outcomemeasure = "Kp"
recordedresult = 0.06

[[record]]
linenotation = "N#CCS(=O)(=O)c1cccc(Oc2ccc(Cl)c(-c3ncnc4c(C(F)(F)F)cccc34)c2)c1"
outcomemeasure = "Kp"
recordedresult = 0.16

[[record]]
linenotation = "Cc1nc(-c2cccc(-c3cccc(S(C)(=O)=O)c3)c2)c2cccc(C(F)(F)F)c2n1"
outcomemeasure = "Kp"
recordedresult = 2.27

[[record]]
linenotation = "CS(=O)(=O)c1cccc(Oc2ccc(F)c(-c3ncnc4c(C(F)(F)F)cccc34)c2)c1"
outcomemeasure = "Kp"
recordedresult = 1.45


* * *

IC50 for assorted molecules
Sequence of the target: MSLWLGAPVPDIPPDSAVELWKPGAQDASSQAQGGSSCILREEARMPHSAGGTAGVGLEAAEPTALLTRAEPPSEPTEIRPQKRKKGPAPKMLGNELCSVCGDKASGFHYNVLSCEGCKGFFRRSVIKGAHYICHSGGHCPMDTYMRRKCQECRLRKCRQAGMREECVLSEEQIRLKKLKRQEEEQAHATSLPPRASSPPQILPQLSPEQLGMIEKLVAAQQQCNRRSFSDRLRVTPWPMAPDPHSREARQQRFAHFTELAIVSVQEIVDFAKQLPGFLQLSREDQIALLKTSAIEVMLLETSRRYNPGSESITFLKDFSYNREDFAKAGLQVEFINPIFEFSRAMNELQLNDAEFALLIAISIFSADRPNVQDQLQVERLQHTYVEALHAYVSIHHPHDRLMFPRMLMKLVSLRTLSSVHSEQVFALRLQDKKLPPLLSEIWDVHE
outcomeMeasure: IC50

[[record]]
molecule = "CNS(=O)(=O)c1cccc(Oc2ccc(F)c(-c3ncnc4c(Cl)cccc34)c2)c1 [Example 23]"
outcomemeasure = "IC50"
recordedresult = "0.033 µM"

[[record]]
molecule = "N#CCCCS(=O)(=O)c1cccc(Oc2ccc(F)c(-c3ncnc4c(Cl)cccc34)c2)c1 [Example 47]"
outcomemeasure = "IC50"
recordedresult = "3.98 µM"

[[record]]
molecule = "O=C(O)CCCS(=O)(=O)c1cccc(Oc2ccc(F)c(-c3ncnc4c(C(F)(F)F)cccc34)c2)c1 [Example 27]"
outcomemeasure = "IC50"
recordedresult = "16.7 µM"

[[record]]
molecule = "NS(=O)(=O)c1cccc(Oc2ccc(F)c(-c3ncnc4c(Cl)cccc34)c2)c1 [Example 20]"
outcomemeasure = "IC50"
recordedresult = "2.88 µM"

[[record]]
molecule = "CS(=O)(=O)c1cc(Oc2ccc(Cl)c(-c3ncnc4c(Cl)cccc34)c2)ccc1C#N [Example 1]"
outcomemeasure = "IC50"
recordedresult = "3.13 µM"

[[record]]
molecule = "CS(=O)(=O)NCCCS(=O)(=O)c1cccc(Oc2ccc(F)c(-c3ncnc4c(C(F)(F)F)cccc34)c2)c1 [Example 29]"
outcomemeasure = "IC50"
recordedresult = "1.33 µM"

[[record]]
molecule = "Cc1nc(-c2cc(Oc3cccc(S(=O)(=O)CCCCNS(C)(=O)=O)c3)ccc2Cl)c2cccc(C(F)(F)F)c2n1 [Example 63]"
outcomemeasure = "IC50"
recordedresult = "4.54 µM"

[[record]]
molecule = "N#CCCCS(=O)(=O)c1cccc(Oc2ccc(F)c(-c3ncnc4c(C(F)(F)F)cccc34)c2)c1 [Example 25]"
outcomemeasure = "IC50"
recordedresult = "1.52 µM"


* * *

studySystem: human LXRα (Homo sapiens)
Construct: biotin (biotinylated); made in house; host or cells: E. coli
testDetails: Ligand-binding test procedure for human LXRα (3H T0901317 tracer, flash plates)
details: competition with 3H T0901317; read-out: hLXRa binding IC50
outcomeMeasure: log10 IC50 (log10 of the value in µM)

[[record]]
linenotation = "CS(=O)(=O)c1cc(Oc2ccc(F)c(-c3ncnc4c(Cl)cccc34)c2)ccc1C(N)=O"
outcomemeasure = "log10 IC50"
recordedresult = 1.04

[[record]]
linenotation = "CS(=O)(=O)c1cc(Oc2ccc(F)c(-c3ncnc4c(C(F)(F)F)cccc34)c2)ccc1C(N)=O"
outcomemeasure = "log10 IC50"
recordedresult = 0.64

[[record]]
linenotation = "CS(=O)(=O)NCCCCS(=O)(=O)c1cccc(Oc2ccc(F)c(-c3ncnc4c(Cl)cccc34)c2)c1"
outcomemeasure = "log10 IC50"
recordedresult = 0.69

[[record]]
linenotation = "NS(=O)(=O)c1cccc(Oc2ccc(F)c(-c3ncnc4c(C(F)(F)F)cccc34)c2)c1"
outcomemeasure = "log10 IC50"
recordedresult = 0.00

[[record]]
linenotation = "NC(=O)CCCS(=O)(=O)c1cccc(Oc2ccc(F)c(-c3ncnc4c(Cl)cccc34)c2)c1"
outcomemeasure = "log10 IC50"
recordedresult = 0.82

[[record]]
linenotation = "CNS(=O)(=O)c1cccc(Oc2ccc(Cl)c(-c3ncnc4c(C(F)(F)F)cccc34)c2)c1"
outcomemeasure = "log10 IC50"
recordedresult = -1.09

[[record]]
linenotation = "CNCCCS(=O)(=O)c1cccc(Oc2ccc(F)c(-c3ncnc4c(Cl)cccc34)c2)c1"
outcomemeasure = "log10 IC50"
recordedresult = 0.86

[[record]]
linenotation = "CS(=O)(=O)CCCS(=O)(=O)c1cccc(Oc2ccc(Cl)c(-c3ncnc4c(C(F)(F)F)cccc34)c2)c1"
outcomemeasure = "log10 IC50"
recordedresult = -0.05

